Here the recorded Percent Effect is given for each entry.
- System: Wolbachia pipientis
- test.method.notes: Anti-Wolbachia Cell-Based Screen
- Type: functional
- Parameters: scale not given: in the data most compounds retested in dose-response had high values
- test.context: 5 µM
In all, about 48,000 compounds went through this assay and about 13,000 (27%) showed an effect of 50% or more. Some of the results follow.
State just the number; it will be interpreted in %.

[
  {
    "compound": "CC(=O)N1CCCCC1c1cc(C(=O)N2CCOCC2)[nH]n1 (stereo not drawn)",
    "parameter": "Percent Effect",
    "unit.name": "%",
    "recorded.number": -8.904
  },
  {
    "compound": "O[C@@H]1CN(c2cnc3ccccc3n2)CC[C@H]1c1ccc2c(c1)OCO2",
    "parameter": "Percent Effect",
    "unit.name": "%",
    "recorded.number": 98.83
  },
  {
    "compound": "COc1c(C)cnc(CN(C)C(=O)c2ccccc2F)c1C",
    "parameter": "Percent Effect",
    "unit.name": "%",
    "recorded.number": -7.265
  },
  {
    "compound": "CN(C)Cc1ccc(C2CCCCN2C(=O)c2cc(C3CC3)n[nH]2)cc1 (stereo not drawn)",
    "parameter": "Percent Effect",
    "unit.name": "%",
    "recorded.number": 2.856
  },
  {
    "compound": "CC(=O)N1Cc2ccccc2CC1C(=O)Nc1cc(C)ccn1 (stereo not drawn)",
    "parameter": "Percent Effect",
    "unit.name": "%",
    "recorded.number": -13.21
  }
]

Challenge: Could you tell me which Percent Effect is on file for "Cc1cccc2[nH]c(C3CCN(C(=O)c4cnc(O)cc4O)CC3)nc12" ?
Response given: -25

Challenge: Thanks! And Cn1cc(CN2CCCC3(CCN(c4nncs4)C3)C2)cn1.O=C(O)C(F)(F)F (stereo not drawn) ?
Response given: -2.653

Challenge: What about C[C@@H]1CN(C(=O)Nc2cccc(OC(F)F)c2)CC(C(N)=O)O1 (stereo partly drawn) ?
Response given: -8.405

Challenge: Then this compound: CN1CCCc2cc(NC(=O)N3CCOC(C(N)=O)C3)ccc21 (stereo not drawn)
Response given: -7.642

Challenge: Please answer likewise for CC(C)Oc1ccc(CN2CCCC(N3CCCC3)C2)cc1CO (stereo not drawn)
Response given: -11.2

Challenge: Note, next up: "COc1nc2ccn(CCNc3cc(C)ccn3)c(=O)c2cc1C#N"
Response given: -7.591

---

Parameter: Percent Effect. Scope: all listed entries.
- Tested on: Wolbachia pipientis
- test.method.notes: Anti-Wolbachia Cell-Based Screen
- Type: functional
- Design: scale not given: in the data most compounds retested in dose-response had high values
- test.context: 5 µM
About 13,000 (27%) of roughly 48,000 compounds showed an effect of 50% or more. Some of the results follow.
Respond with the bare value in %.

Worked cases, Percent Effect given:
[
  {
    "molecule": "CCc1nccn1C1CCCN(C(=O)c2cc3nc(C)ccc3o2)C1 (stereo not given)",
    "recorded.number": -10.67
  },
  {
    "molecule": "CC(=O)NCC1CCCN(C(=O)Cc2c(C)noc2C)C1 (stereo not given)",
    "recorded.number": 118.6
  },
  {
    "molecule": "O=C(O)C(F)(F)F.O=C(c1nc2c(o1)CN(CC1CCC1)C2)N1CCCC1",
    "recorded.number": 1.201
  },
  {
    "molecule": "Cc1ccc(-n2ccnc2)c(C(=O)NCCCN(C)C)c1",
    "recorded.number": -3.641
  }
]

Challenge: Given the entry "CN(C)C(=O)N1CC2(CCOCC2)c2cc(NS(=O)(=O)C3CC3)ccc21" , report its measured Percent Effect.
Response given: -3.56

Challenge: Another molecule to check: "CN(C)CCCNC(=O)c1cc(Br)c2c(c1)OCCO2"
Response given: -6.944

Challenge: Check O=C(c1ccoc1)N1Cc2cnn(CC3CC3)c2C(COCC2CC2)C1 (stereo not given) too.
Response given: 83.82

Challenge: For "Cc1ncccc1C(=O)Nc1cccc2c1C(=O)NC2" then?
Response given: -1.694

Source: ChEMBL document CHEMBL3988442
